src = patent US20230233569A1

Target: KRAS G12D (Homo sapiens, UniProt P01116+P62937, G12D)
Sequence (P01116 1-169 isoform P01116-2 G12D limits assumed): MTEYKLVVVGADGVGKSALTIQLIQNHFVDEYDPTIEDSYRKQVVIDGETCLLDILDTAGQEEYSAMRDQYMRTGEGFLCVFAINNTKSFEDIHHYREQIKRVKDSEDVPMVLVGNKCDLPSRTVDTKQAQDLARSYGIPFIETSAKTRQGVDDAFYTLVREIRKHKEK
Sequence (P62937 whole entry): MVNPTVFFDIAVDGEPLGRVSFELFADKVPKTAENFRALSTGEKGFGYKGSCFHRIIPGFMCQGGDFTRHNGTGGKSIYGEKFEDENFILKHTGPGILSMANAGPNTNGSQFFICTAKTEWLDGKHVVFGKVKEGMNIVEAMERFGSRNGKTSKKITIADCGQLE
Test: Disruption of BRAF RBD interaction with Ras (FRET / MOA assay, with Cyclophilin A)
Assay type: biochemical
Conditions: read-out: KRAS G12D FRET data, IC50
pIC50: −log10 of the molar value.
measurement label: pIC50

Lab note: measured pIC50 of C=CC(=O)N1CC(NC[C@H](C(=O)N[C@H]2Cc3cc(O)cc(c3)-c3ccc4c(c3)c(c(-c3cccnc3COC)n4CC)CC(C)(C)COC(=O)[C@@H]3CCCN(N3)C2=O)C(C)C)C1 [Example A174] was < 5.00

Record CCn1c(-c2cnccc2COC)c2c3cc(ccc31)-c1cc(O)cc(c1)C[C@H](NC(=O)[C@H](C(C)C)N(C)C(=O)[C@H]1CCN(C(=O)C(C)C)C1)C(=O)N1CCC[C@H](N1)C(=O)OCC(C)(C)C2 [Example A29] , field pIC50: < 5.00

pIC50 recorded for this molecule, CCn1c(-c2cccnc2[C@H](C)OC)c2c3cc(ccc31)-c1csc(n1)C[C@H](NC(=O)[C@H](C(C)C)N(C)C(=O)N(C)C1CCC1)C(=O)N1CCC[C@H](N1)C(=O)OCC(C)(C)C2 (atropisomer, axis not shown) [Example A349] , is 6.00 to 7.00
